- assay_system: Histamine H2 receptor (Cavia porcellus) (UniProt P47747)
- Sequence (P47747 whole entry): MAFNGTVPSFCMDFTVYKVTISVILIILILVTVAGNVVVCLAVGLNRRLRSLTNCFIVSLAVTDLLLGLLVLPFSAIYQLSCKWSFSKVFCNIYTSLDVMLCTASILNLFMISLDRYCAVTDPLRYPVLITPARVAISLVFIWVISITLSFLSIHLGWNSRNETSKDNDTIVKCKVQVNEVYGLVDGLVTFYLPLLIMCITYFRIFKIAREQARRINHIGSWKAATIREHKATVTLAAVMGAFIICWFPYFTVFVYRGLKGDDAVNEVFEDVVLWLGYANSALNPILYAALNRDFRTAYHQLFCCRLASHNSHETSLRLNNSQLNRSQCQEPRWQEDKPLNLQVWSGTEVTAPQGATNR
- run_description: Antagonist activity at histamine H2 receptor in guinea pig atrium
- conditions_used: Cardiac atrium
Listed below: pKb values for each entry.
Please give only the number in your answer, with no unit.

Completed entries (count: 3):
>  <record_smiles>
O=C(NCCCCC1CCCCC1)OCCCc1c[nH]cn1

>  <pKb>
4.61

$$$$
>  <record_smiles>
O=C(NCCC1CCCCC1)OCCCc1c[nH]cn1

>  <pKb>
4.49

$$$$
>  <record_smiles>
O=C(NCCC1CC1)OCCCc1c[nH]cn1

>  <pKb>
3.5

$$$$

Entry O=C(NCCCOc1ccccc1)OCCCc1c[nH]cn1 , tested on Histamine H2 receptor (Cavia porcellus) (UniProt P47747), has a reported pKb of 4.26

Entry C=CCCCNC(=O)OCCCc1c[nH]cn1 , tested on Histamine H2 receptor (Cavia porcellus) (UniProt P47747), has a reported pKb of 3.6

Entry O=C(NCCc1ccc(Cl)cc1)OCCCc1c[nH]cn1 , tested on Histamine H2 receptor (Cavia porcellus) (UniProt P47747), has a reported pKb of 4.41

Entry O=C(NCCCC1CCCCC1)OCCCc1c[nH]cn1 , tested on Histamine H2 receptor (Cavia porcellus) (UniProt P47747), has a reported pKb of 4.94

Entry O=C(NCCCCOc1ccccc1)OCCCc1c[nH]cn1 , tested on Histamine H2 receptor (Cavia porcellus) (UniProt P47747), has a reported pKb of 4.78
